Test: PBS Stability Assay
Assay type: physicochemical
Conditions: buffer, pH 7.4, 2 μM, phosphate buffered saline pH 7.4; read-out: PBS T½
measuredParameter: half-life at 2 μM (h)
Numbers only; they are read as h.

Example cases with answers are listed next.
compound="COC(=O)N[C@H](C(=O)N[C@@H](Cc1ccc(C#Cc2cnc(N3CC4CCC(C3)N4C3COC3)nc2)cc1)[C@H](CN(Cc1c(F)cc(-c2ccn(C(F)F)n2)cc1F)NC(=O)[C@@H](NC(=O)OC)C(C)(C)C(F)(F)F)OC(=O)CC(C)(C)c1c(CC(=O)NC(CCCC(=O)O)C(=O)O)cc(C)cc1OP(=O)(O)O)C(C)(C)C(F)(F)F (stereo partly drawn) [Example 41]" measuredparameter="half-life at 2 μM" endpointresult=5.02
compound="COC(=O)N[C@H](C(=O)N[C@@H](Cc1ccc(C#Cc2cnc(N3CC4CCC(C3)N4C3COC3)nc2)cc1)[C@H](CN(Cc1c(F)cc(-c2ccn(C(F)F)n2)cc1F)NC(=O)[C@@H](NC(=O)OC)C(C)(C)C(F)(F)F)OC(=O)CC(C)(C)c1c(CC(=O)NCCC(=O)O)cc(C)cc1OP(=O)(O)O)C(C)(C)C(F)(F)F [Example 26]" measuredparameter="half-life at 2 μM" endpointresult=2.44
compound="COC(=O)N[C@H](C(=O)N[C@@H](Cc1ccc(C#Cc2cnc(N3CC4CCC(C3)N4C3COC3)nc2)cc1)[C@H](CN(Cc1c(F)cc(-c2ccn(C(F)F)n2)cc1F)NC(=O)[C@@H](NC(=O)OC)C(C)(C)C(F)(F)F)OC(=O)CC(C)(C)c1c(CC(=O)O)cccc1OP(=O)(O)O)C(C)(C)C(F)(F)F [Example 5]" measuredparameter="half-life at 2 μM" endpointresult=7.62

What measured half-life at 2 μM goes with COC(=O)N[C@H](C(=O)N[C@@H](Cc1ccc(C#Cc2cnc(N3CC4CCC(C3)N4C3COC3)nc2)cc1)[C@H](CN(Cc1c(F)cc(-c2ccn(C(F)F)n2)cc1F)NC(=O)[C@@H](NC(=O)OC)C(C)(C)C(F)(F)F)OC(=O)CC(C)(C)c1c(CC(=O)N2CC[C@@H](C(=O)O)C2)cc(C)cc1OP(=O)(O)O)C(C)(C)C(F)(F)F [Example 112] ?
6.53

Next: COC(=O)N[C@H](C(=O)N[C@@H](Cc1ccc(C#Cc2cnc(N3CC4CCC(C3)N4C3COC3)nc2)cc1)[C@H](CN(Cc1c(F)cc(-c2ccn(C(F)F)n2)cc1F)NC(=O)[C@@H](NC(=O)OC)C(C)(C)C(F)(F)F)OC(=O)CC(C)(C)c1c(CC(=O)N[C@H](CCC(=O)O)C(=O)O)cc(C)cc1OP(=O)(O)O)C(C)(C)C(F)(F)F [Example 92]
5.95

Please give the result for COC(=O)N[C@H](C(=O)N[C@@H](Cc1ccc(C#Cc2cnc(N3CC4CCC(C3)N4C3COC3)nc2)cc1)[C@H](CN(Cc1c(F)cc(-c2ccn(C(F)F)n2)cc1F)NC(=O)[C@@H](NC(=O)OC)C(C)(C)C(F)(F)F)OC(=O)CC(C)(C)c1c(CC(=O)N[C@@H](CC(C)C)C(=O)O)cc(C)cc1OP(=O)(O)O)C(C)(C)C(F)(F)F [Example 99] too.
7.45

---

Test: Solubility in FaSSIF
Details: 23 °C, pH 6.5, fassif, thermodynamic from solid
Experimental: Buffer Preparation: Fasted State Simulated Intestinal Fluid (FaSSIF): Simulated Intestinal Fluid (SIF) powder containing a complex of Taurocholate and Lecithin (4:1 molar ratio) was obtained from Biorelevant. […] Test Compounds: Each test compound was placed in a vial containing approximately 7 mg of material. Aliquots were weighed out for each assay media at each time point to be analyzed. […] The plate was sealed with a pierceable heat seal and analyzed by HPLC-UV.
measuredParameter: solubility at 2 h (µg/mL)
Hi! Could you send only the number? It should be in µg/mL, unit omitted.

For COC(=O)N[C@H](C(=O)N[C@@H](Cc1ccc(C#Cc2cnc(N3CC4CCC(C3)N4C3COC3)nc2)cc1)[C@H](CN(Cc1c(F)cc(-c2ccn(C(F)F)n2)cc1F)NC(=O)[C@@H](NC(=O)OC)C(C)(C)C(F)(F)F)OC(=O)CC(C)(C)c1c(CC(=O)NCC(=O)NS(C)(=O)=O)cc(C)cc1OP(=O)(O)O)C(C)(C)C(F)(F)F [Example 27] , what is its reported solubility at 2 h?
4420

---

Test: Intestinal S9 Assay (human GI S9)
Format: in vitro ADME
Settings: human, 1.0 mg/mL S9 protein, TRIS pH 7.4, read-out: Human GI S9 T½
measuredParameter: half-life at 2 μM
Value and unit, in that order.

// known answers, use as guide
compoundsmiles=COC(=O)N[C@H](C(=O)N[C@@H](Cc1ccc(C#Cc2cnc(N3CC4CCC(C3)N4C3COC3)nc2)cc1)[C@H](CN(Cc1c(F)cc(-c2ccn(C(F)F)n2)cc1F)NC(=O)[C@@H](NC(=O)OC)C(C)(C)C(F)(F)F)OC(=O)CC(C)(C)c1c(CC(=O)N[C@@]2(C(=O)O)CCOC2)cc(C)cc1OP(=O)(O)O)C(C)(C)C(F)(F)F measuredparameter="half-life at 2 μM" endpointresult="3.31 h"
compoundsmiles=COC(=O)N[C@H](C(=O)N[C@@H](Cc1ccc(C#Cc2cnc(N3CC4CCC(C3)N4C3COC3)nc2)cc1)[C@H](CN(Cc1c(F)cc(-c2ccn(C(F)F)n2)cc1F)NC(=O)[C@@H](NC(=O)OC)C(C)(C)C(F)(F)F)OC(=O)CC(C)(C)c1c(CC(=O)N[C@@H](CS(=O)(=O)O)C(=O)O)cc(C)cc1OP(=O)(O)O)C(C)(C)C(F)(F)F measuredparameter="half-life at 2 μM" endpointresult="3.87 h"

Next molecule, please.
Endpoint output: half-life at 2 μM of "COC(=O)N[C@H](C(=O)N[C@@H](Cc1ccc(C#Cc2cnc(N3CC4CCC(C3)N4C3COC3)nc2)cc1)[C@H](CN(Cc1c(F)cc(-c2ccn(C(F)F)n2)cc1F)NC(=O)[C@@H](NC(=O)OC)C(C)(C)C(F)(F)F)OC(=O)CC(C)(C)c1c(CC(=O)N2CC(C(=O)O)C2)cc(C)cc1OP(=O)(O)O)C(C)(C)C(F)(F)F" . Value?
8.51 h

---

# solubility at 2 h values compiled below
Assay: Solubility in FaSSIF
Conditions: 23 °C, pH 6.5, fassif, thermodynamic from solid
Give the number; µg/mL is assumed, so skip it.

compound="COC(=O)N[C@H](C(=O)N[C@@H](Cc1ccc(C#Cc2cnc(N3CC4CCC(C3)N4C3COC3)nc2)cc1)[C@H](CN(Cc1c(F)cc(-c2ccn(C(F)F)n2)cc1F)NC(=O)[C@@H](NC(=O)OC)C(C)(C)C(F)(F)F)OC(=O)CC(C)(C)c1c(CC(=O)N2C[C@@H](O)C[C@H]2C(=O)O)cc(C)cc1OP(=O)(O)O)C(C)(C)C(F)(F)F [Example 56]" measuredparameter="solubility at 2 h" endpointresult=2400

With those in mind, consider the next compound.
For the compound shown here, COC(=O)N[C@H](C(=O)N[C@@H](Cc1ccc(C#Cc2cnc(N3CC4CCC(C3)N4C3COC3)nc2)cc1)[C@H](CN(Cc1c(F)cc(-c2ccn(C(F)F)n2)cc1F)NC(=O)[C@@H](NC(=O)OC)C(C)(C)C(F)(F)F)OC(=O)CC(C)(C)c1c(CC(=O)N2CC[C@@H]2C(=O)O)cc(C)cc1OP(=O)(O)O)C(C)(C)C(F)(F)F [Example 9] , give the reported solubility at 2 h.
2300

---

Target: bovine intestinal alkaline phosphatase (Bos taurus (Bovine), UniProt P19111)
Sequence (P19111 20-506): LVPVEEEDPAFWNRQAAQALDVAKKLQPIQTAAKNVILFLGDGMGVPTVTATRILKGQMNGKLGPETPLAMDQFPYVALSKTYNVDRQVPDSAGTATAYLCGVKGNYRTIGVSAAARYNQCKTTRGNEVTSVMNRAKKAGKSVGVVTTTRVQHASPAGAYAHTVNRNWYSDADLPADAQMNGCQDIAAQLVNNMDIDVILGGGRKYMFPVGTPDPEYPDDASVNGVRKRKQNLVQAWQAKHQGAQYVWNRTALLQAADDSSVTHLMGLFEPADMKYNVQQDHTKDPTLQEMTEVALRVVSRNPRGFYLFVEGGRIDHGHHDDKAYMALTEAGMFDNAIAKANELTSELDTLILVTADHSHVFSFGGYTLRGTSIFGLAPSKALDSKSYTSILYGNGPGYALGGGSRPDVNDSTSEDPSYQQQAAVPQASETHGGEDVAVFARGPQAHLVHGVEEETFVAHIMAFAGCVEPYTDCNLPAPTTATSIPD
Experiment: BiALP: conversion by bovine intestinal alkaline phosphatase
Format: in vitro ADME
Conditions: 2 μM substrate, 100 ng/mL iALP, Tris pH 7.8, 37° C., 60 minutes
measuredParameter: [Compound] (nM)
State just the number; it will be interpreted in nM.

Some solved entries appear below for comparison.
compound="COC(=O)N[C@H](C(=O)N[C@@H](Cc1ccc(C#Cc2cnc(N3CC4CCC(C3)N4C3COC3)nc2)cc1)[C@H](CN(Cc1c(F)cc(-c2ccn(C(F)F)n2)cc1F)NC(=O)[C@@H](NC(=O)OC)C(C)(C)C(F)(F)F)OC(=O)CC(C)(C)c1c(CC(=O)NCc2ccc(C#N)cc2)cc(C)cc1OP(=O)(O)O)C(C)(C)C(F)(F)F [Example 51]" endpointresult=2331.5
compound="COC(=O)N[C@H](C(=O)N[C@@H](Cc1ccc(C#Cc2cnc(N3CC4CCC(C3)N4C3COC3)nc2)cc1)[C@H](CN(Cc1c(F)cc(-c2ccn(C(F)F)n2)cc1F)NC(=O)[C@@H](NC(=O)OC)C(C)(C)C(F)(F)F)OC(=O)OCOC(=O)CC(C)(C)c1c(CC(=O)N2CCN(S(N)(=O)=O)CC2)cc(C)cc1OP(=O)(O)O)C(C)(C)C(F)(F)F [Example 85]" endpointresult=1466.1

Query the reported [Compound] for bovine intestinal alkaline phosphatase (Bos taurus (Bovine), UniProt P19111); item: COC(=O)N[C@H](C(=O)N[C@@H](Cc1ccc(C#Cc2cnc(N3CC4CCC(C3)N4C3COC3)nc2)cc1)[C@H](CN(Cc1c(F)cc(-c2ccn(C(F)F)n2)cc1F)NC(=O)[C@@H](NC(=O)OC)C(C)(C)C(F)(F)F)OC(=O)CC(C)(C)c1c(CC(=O)O)cc(C)cc1OP(=O)(O)O)C(C)(C)C(F)(F)F [Example 4]
1627.4
